Every entry's value here was drawn from the supplement of paper PMC9170038.

- Tested on: MS2 coat protein
- measurement-protocol: apparent KD of MS2 coat protein; designed switch direction (-1 OFF switch, 1 ON switch): -1; higher = weaker reporter binding
- details: Eterna round: R95; input ligand: FMN 200 uM
# apparent KD of MS2 coat protein values compiled below
measured-parameter: apparent KD of MS2 coat protein (nM)

INSERT INTO measurements (entry_sequence, measured_parameter, observed) VALUES
  ('GGUUGGCGAGGAUAUACAUGAGGAUCACCCAUGUGAGAGAGAAAAGUGAGAACGAAAAGUAGAAGGCGCUGACG [salish99_ex3_r3_061] (puzzle: Exclusion 3)', 'apparent KD of MS2 coat protein', 53.5),
  ('GAUUAUGCGAGCUUUAGGGACAUGAGGAUCACCCAUGUUCGUCUUAUUGGUCUAAAUGCACUGACAUACCUAAAUCU [JMF 74] (puzzle: Sensor v3, turn-off variant 1)', 'apparent KD of MS2 coat protein', 14.9),
  ('GGAUGGCGAGGAUAUACAUGAGGAUCACCCAUGUGAGAGAAAUAAGUGAGGAAGAAAAGUAGAAGGCGCAGACG [Mat - Exclusion 3 - Mod of Salish D45] (puzzle: Exclusion 3)', 'apparent KD of MS2 coat protein', 11.1);
